- tgt: Leishmania infantum promastigotes
- Assay type: cell-based
- measurement.context: 72 hours at 26° C., luciferase luminescence (FIG. 2 B), read-out: IC50, promastigote form
Ends that are not written are not given here.
value.kind: IC50

Prompt: # get_value(readout='IC50', item= FLKGIVGMLGKLF-NH2 [[K^3]temporin-SHa] )
Response: ~10 µM

Prompt: Try this substance next: FLSGIVGMLGKLF-NH2 [temporin-SHa, F-L-S-G-I-V-G-M-L-G-K-L-F]
Response: ~20 µM

----------
- assay.summary: Hemolytic test
- Assay type: cell-based
- measurement.context: erythrocytes (washed red blood cells), pH 7.4; human erythrocytes, 1 hr at 37° C., concentration inducing hemolysis of 50% of the cells; read-out: LC50 erythrocytes
Ends that are not written are not given here.
value.kind: HC50 at 1 hr
Report the figure along with its unit, number first.

Prompt: Given FLKGIVGMLGKLF-NH2 [[K^3]temporin-SHa] , state its recorded HC50 at 1 hr.
Response: 50 µM

Prompt: Okay, and FLSGIVGMLGKLF-NH2 [temporin-SHa, F-L-S-G-I-V-G-M-L-G-K-L-F] ?
Response: 25 µM

Reference for the values: patent US9522942B2
